# system-name: mouse 17β-HSD1 (Mus musculus, UniProt P51656)
# Construct: made in house; host or cells: HEK293 cells, transient transfection; 1,000 g supernatant of the cell lysate
# Sequence (P51656 whole entry): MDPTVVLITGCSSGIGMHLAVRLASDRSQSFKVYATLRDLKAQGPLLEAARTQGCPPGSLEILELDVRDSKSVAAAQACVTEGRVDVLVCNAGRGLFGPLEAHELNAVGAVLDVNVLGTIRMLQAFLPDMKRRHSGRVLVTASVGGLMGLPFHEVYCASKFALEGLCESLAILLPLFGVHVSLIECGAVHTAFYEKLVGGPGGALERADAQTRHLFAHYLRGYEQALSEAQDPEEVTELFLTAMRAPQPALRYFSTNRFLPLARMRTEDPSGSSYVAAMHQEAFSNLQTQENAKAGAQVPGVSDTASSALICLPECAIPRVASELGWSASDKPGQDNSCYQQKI
# assay-info: Inhibition of mouse 17β-HSD1 (recombinant, HEK293 lysate)
# Type: biochemical
# settings: read-out: Inhibition @ 1 μM m17β-HSD1
endpoint-name: inhibition at 1 µM (%)

// known answers, use as guide
O=C(c1ccc(-c2cc(Cl)c(O)c(Cl)c2)s1)c1cc(F)c(F)c(O)c1F; 13.8
CC(=O)N1CCN(Cc2cc(-c3ccc(C(=O)c4c(F)ccc(O)c4F)s3)cc(Cl)c2O)CC1; 16

I. COc1c(C)cc(-c2ccc(C(=O)c3cc(F)c(F)c(O)c3F)s2)cc1C
II. O=C(c1ccc(-c2ccc(O)c(Cl)c2)s1)c1cc(F)c(F)c(O)c1F
Prompt: // returns I or II , whichever has the lower inhibition at 1 µM Lab note: record the label of whichever item you select.
Completion: I
(I: 13.4%, II: 33%)

* * *

# system-name: rat 17β-HSD1 (Rattus norvegicus)
# Construct: made in house; host or cells: HEK293 cells, transient transfection; 1,000 g supernatant of the cell lysate
# Sequence (P51657 whole entry): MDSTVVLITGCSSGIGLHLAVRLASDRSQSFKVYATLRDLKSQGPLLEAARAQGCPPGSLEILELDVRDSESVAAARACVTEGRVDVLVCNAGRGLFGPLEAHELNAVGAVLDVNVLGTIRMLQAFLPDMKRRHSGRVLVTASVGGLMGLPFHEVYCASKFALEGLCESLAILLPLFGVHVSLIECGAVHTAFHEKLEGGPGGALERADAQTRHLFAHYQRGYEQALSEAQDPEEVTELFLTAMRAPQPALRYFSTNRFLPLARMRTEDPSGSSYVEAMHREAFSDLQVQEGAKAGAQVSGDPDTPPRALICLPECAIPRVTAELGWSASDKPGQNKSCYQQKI
# assay-info: Inhibition of rat 17β-HSD1 (recombinant, HEK293 lysate)
# Format: biochemical
# settings: Cmpd conc. 250 nM; read-out: % Inhibition r17β-HSD1
endpoint-name: inhibition at […] (%)

Nc1cccc(-c2ccc(C(=O)c3c(F)ccc(O)c3F)s2)c1 [Compound 1]; 51

P. Nc1cccc(-c2ccc(C(=O)c3cc(F)c(F)c(O)c3F)s2)c1 [Compound 35]
Q. O=C(c1ccc(-c2cccc(NS(=O)(=O)c3ccccc3OC(F)(F)F)c2)s1)c1cc(F)c(F)c(O)c1F [Compound 37]
Prompt: // returns P or Q , whichever has the lower inhibition at […] Lab note: record the label of whichever item you select.
Completion: Q
(Q: 29%, P: 46%)

* * *

# settings: human liver S9, 1 mg/mL; unit not given
endpoint-name: CLint

O=C(c1ccc(-c2ccc(O)c(Cl)c2)s1)c1cc(F)c(F)c(O)c1F [Compound 41]; 61.5
Cc1cc(-c2ccc(C(=O)c3cc(F)c(F)c(O)c3F)s2)cc(C)c1O [Compound 50]; 18.2
Cc1cc(-c2ccc(C(=O)c3c(F)ccc(O)c3F)s2)cc(C)c1O [Compound 24]; 272.7
COc1ccc(-c2ccc(C(=O)c3c(F)ccc(O)c3F)s2)cc1Cl [Compound 12]; 149.6
COc1c(Cl)cc(-c2ccc(C(=O)c3c(F)ccc(O)c3F)s2)cc1CN1CCNCC1 [Compound 30]; 106.8
Cc1cc(-c2ccc(C(=O)c3cccc(O)c3Cl)s2)cc(C)c1O [Compound 79]; 31.6

1. O=C(c1ccc(-c2cc(Cl)c(O)c(Cl)c2)s1)c1c(F)ccc(O)c1F [Compound 23]
2. N#Cc1cc(-c2ccc(C(=O)c3c(F)ccc(O)c3F)s2)ccc1O [Compound 25]
Prompt: # returns the entry with the larger CLint; inputs 1 and 2 Lab note: record the label of whichever item you select.
Completion: 2

* * *

# system-name: human 17β-HSD1 (Homo sapiens)
# Construct: For the partial purification of 17β-HSD1, the cytosolic fraction was precipitated with ammonium sulfate; from tissue; host or cells: human placenta, cytosolic fraction, ammonium sulfate precipitate
# Sequence (P14061 whole entry): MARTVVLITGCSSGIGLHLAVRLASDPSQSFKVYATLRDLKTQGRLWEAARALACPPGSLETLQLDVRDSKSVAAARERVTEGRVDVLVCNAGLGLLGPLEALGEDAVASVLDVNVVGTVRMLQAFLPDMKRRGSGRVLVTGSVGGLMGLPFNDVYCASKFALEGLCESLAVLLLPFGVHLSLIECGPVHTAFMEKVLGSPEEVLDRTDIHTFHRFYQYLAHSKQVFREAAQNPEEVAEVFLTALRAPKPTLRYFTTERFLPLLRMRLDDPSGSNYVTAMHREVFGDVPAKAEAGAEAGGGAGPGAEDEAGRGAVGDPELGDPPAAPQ
# assay-info: Inhibition of human 17β-HSD1 (conversion of [3H]-E1 to E2, HPLC radioflow detection)
# Assay type: biochemical
# settings: human placental cytosolic enzyme, E1 500 nM, NADH; Tables 1, 4-11; read-out: IC50 [nM] h17β-HSD1
endpoint-name: IC50 (nM)

COc1c(Cl)cc(-c2ccc(C(=O)c3cc(F)c(F)c(O)c3F)s2)cc1Cl [Compound 45]; 0.6
Nc1cccc(-c2ccc(C(=O)c3cc(F)c(F)c(O)c3F)s2)c1 [Compound 35]; 49
COc1c(Cl)cc(-c2ccc(C(=O)c3c(F)ccc(O)c3F)s2)cc1Cn1ccnn1 [Compound 31]; 2.1
O=C(c1ccc(-c2cccc(CO)c2)s1)c1cc(F)c(F)c(O)c1F [Compound 47]; 5.9
O=C(c1cccc(O)c1)c1ccc(-c2ccc(O)c(Cl)c2)s1 [D, reference compound]; 5
COc1c(C)cc(-c2ccc(C(=O)c3c(F)ccc(O)c3F)s2)cc1Cl [Compound 26]; 0.4
Cc1c(O)cccc1C(=O)c1ccc(-c2ccc(F)cc2F)s1 [B, reference compound]; 3430
O=C(c1ccc(-c2ccc(O)c(Cl)c2)s1)c1cc(F)c(F)c(O)c1F [Compound 41]; 1.1
Cn1cnc(S(=O)(=O)Nc2cccc(-c3ccc(C(=O)c4cc(F)c(F)c(O)c4F)s3)c2)c1 [Compound 48]; 21
COc1c(Cl)cc(-c2ccc(C(=O)c3c(F)ccc(O)c3F)s2)cc1CN1CCNCC1 [Compound 30]; 4.7

I. NC(=O)c1cccc(-c2ccc(C(=O)c3cc(F)c(F)c(O)c3F)s2)c1 [Compound 44]
II. Cc1cc(-c2ccc(C(=O)c3cc(F)c(F)c(O)c3C)s2)cc(C)c1O [Compound 72]
III. Cc1cc(-c2ccc(C(=O)c3cccc(O)c3C)s2)cc(C)c1O [G, reference compound]
IV. O=C(c1ccc(Br)s1)c1cc(F)c(F)c(O)c1F [Compound 1g]
V. N#Cc1cc(-c2ccc(C(=O)c3c(F)ccc(O)c3F)s2)ccc1O [Compound 25]
Prompt: Order field: IC50 | Direction: descending (largest first) Respond with an ordered listing of the labels, as requested.
Completion: III, IV, II, I, V
(III: 899 nM, IV: 130 nM, II: 44 nM, I: 22.4 nM, V: 3.3 nM)

P. O=C(c1ccc(-c2cccc(Cl)c2)s1)c1c(F)ccc(O)c1F [Compound 11]
Q. O=C(c1ccc(-c2ccc(O)c(Cl)c2)s1)c1c(F)ccc(O)c1F [Compound 20]
Prompt: # returns the entry with the larger IC50; inputs P and Q Lab note: record the label of whichever item you select.
Completion: P

Origin of the recorded values: patent US9884839B2
